Target: T1, monkey CD3ε protein (monkey, UniProt Q95LI5 22-117, limits assumed)
T1 sequence (looked up): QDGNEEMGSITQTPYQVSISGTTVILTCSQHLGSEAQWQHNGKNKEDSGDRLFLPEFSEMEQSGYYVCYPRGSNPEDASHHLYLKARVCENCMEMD
Experiment: ELISA, coated antigen
OUTCOME MEASURE: EC50 (pM)
The reply should be a number in pM, with the unit left off.

// query What value of EC50 has been reported for the following binder? 1-22.6-1-H2a-L2a humanized antibody (antibody, human IgG1, kappa, V domains shown, also called 1-22.6-H2a-L2a) VH: EVQLVQSGSELKKPGASVKVSCKTSGYTFTSYGMSWVRQAPGQGLEWMGWINTYSGVPTYAQDFKGRFVFSLDTSVSTAYLQISSLKAEDTAVYYCARLKNNPFVWGQGTTVTVSS VL: DIVMTQSPDSLAVSLGERATINCRSSQLILHSSGNTYLEWYQQKPGQSPKLLIYKVSNRFSGVPDRFSGSGSGTDFTLTISSLQAEDVAVYYCFQGSHFPWTFGGGTKVEIKR
// result 0.106

// query What value of EC50 has been reported for the following binder? 5-7.13-H1a-L2 humanized antibody (antibody, human IgG1, kappa, V domains shown) VH: EVQLVQSGAEVKKPGASVKVSCKASGYTFTSYWVHWVRQAPGQRLEWMGNINPSDGVTNYNEKFKSRVTITVDKSASTAYMELSSLRSEDTAVYYCTRDAYGQYYFDNWGQGTTVTVSS VL: DIVMTQTPLSLPVTPGEPASISCKSSQSLLNSRTRKNYLAWYLQKPGQSPQLLIYWASVRDSGVPDRFSGSGSGTDFTLKISRVEAEDVGVYYCIQSYYLRTFGGGTKVEIKR
// result 2.63

// query What value of EC50 has been reported for the following binder? 40G5c-hIgG1 (antibody, V domains shown) VH: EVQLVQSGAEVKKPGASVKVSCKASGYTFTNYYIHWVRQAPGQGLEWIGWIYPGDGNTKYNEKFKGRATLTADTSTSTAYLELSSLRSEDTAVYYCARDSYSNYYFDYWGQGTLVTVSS VL: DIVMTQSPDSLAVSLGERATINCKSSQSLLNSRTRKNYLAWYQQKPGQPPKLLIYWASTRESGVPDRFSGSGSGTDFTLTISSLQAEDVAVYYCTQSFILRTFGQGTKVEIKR
// result 128
